Reported z-score values follow for various molecules
# Method Notes: yeast growth modulation, basal conditions, primary screen, YJM789 clinical isolate, OD600, 24 h (AID 1089);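 also: growth of clinical yeast isolate S. cerevisiae YJM 789 seeded 1000 cells per well; test concentration not given here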
# Protocol Conditions: S. cerevisiae YJM789 growth, higher = more signal, called active from +8 up or from −8 down
Lab note: write the figure by itself, no unit.

Below are worked cases with known answers.
molecule=Cc1ccc2[nH]c3nc(CCCn4ccnc4-c4ccccc4)nnc3c2c1 number=0.324
molecule=COc1ccc(COC(=O)NN=C2C[C@@H](O)[C@@H](O)[C@@H]3[C@@H]4C(=O)N(C(C)(C)C)C(=O)[C@@H]4CC[C@@H]23)cc1 number=-1.26
molecule=COC(=O)C1=C(C)N(Cc2ccccc2)C2=C3C(=O)OCC[C@@H]3[C@@](O)(C(=O)OC)C(=O)N2[C@@H]1c1ccccc1 number=0.833
molecule="O=C1CCCC=C1C(O)COCc1ccccc1 (centres undefined)" number=0.249
molecule=COC(=O)[C@@H]1CC[C@H](C)[C@@H](c2ccc(C)cc2)N1C(=O)c1ccc(C=NO[C@@H](C)c2cc(-c3c(C)cc(C)cc3C)no2)cc1 number=-0.0984
molecule=C#CCCCON=C1[C@H]2CCn3c(=O)n([C@@H](CC)c4ccccc4)c(=O)n3[C@H]2[C@H](O)[C@@H]2O[C@H]12 number=-0.455
molecule=CC(C)CON=C1C[C@@H](O)[C@@H](O)[C@@H]2[C@@H]3C(=O)N(Cc4ccccc4)C(=O)[C@@H]3CC[C@H]12 number=-0.549
molecule="COC(=O)[C@H](C)NC(=O)CCC1CC(OC(=O)NCc2cccc3ccccc23)CC2(CCCC(COC(=O)NCCc3ccccc3OC)O2)O1 (some centres undefined)" number=0.502

Turning to the following molecule.
In: Assign z-score to the following record: C#CCCCON=C1C[C@@H](O)[C@@H](O)[C@@H]2[C@@H]3C(=O)N(CC)C(=O)[C@@H]3CC[C@H]12
Out: -0.276
